viability, T/C listing for selected molecules.
Tested on: NCI-H211 complex spheroid viability
Measurement Protocol: Anticancer human tumor NCI-H211 cell line growth inhibition [LSD1]
Condition Notes: second compound 1 µM; first compound 0.000316 µM; stronger effect = lower value
Description: Multicellular complex tumor spheroid response to LSD1 Inhibitor Iadademstat in combination with a variety of drugs and investigational agents in selected tumor cell lines The current study was undertaken to assess response to LSD1 inhibitors in combination with standard-of-care drugs and investigational agents in solid tumor complex spheroid models as well as in the K-562 leukemia. […] Compounds. […] If the clinical Cmax for an agent had not been determined, the highest concentration tested was 10 microM. […]
Measured Attribute: viability, T/C

>  <Molecule>
Cn1ncnc1C1c2n[nH]c(=O)c3cc(F)cc(c23)NC1c1ccc(F)cc1 (stereo not drawn) + NC1CCC(NC2CC2c2ccccc2)CC1

>  <Data Value>
59%

$$$$
>  <Molecule>
CC[C@@]1(O)C(=O)OCc2c1cc1n(c2=O)Cc2cc3c(CN(C)C)c(O)ccc3nc2-1 + NC1CC1c1ccc(-c2cccc(O)c2)cc1

>  <Data Value>
51.9%

$$$$
>  <Molecule>
CC(C)CC(NC(=O)C(Cc1ccccc1)NC(=O)c1cnccn1)B(O)O (stereo not drawn) + NC1CC1c1ccc(-c2cccc(O)c2)cc1

>  <Data Value>
83.4%

$$$$
>  <Molecule>
CC[C@@]1(O)C(=O)OCc2c1cc1n(c2=O)Cc2cc3c(CN(C)C)c(O)ccc3nc2-1 + NC1CCC(NC2CC2c2ccccc2)CC1

>  <Data Value>
51.4%

$$$$
>  <Molecule>
CC(C)CC(NC(=O)CNC(=O)c1cc(Cl)ccc1Cl)B1OC(=O)CC(CC(=O)O)(C(=O)O)O1 (stereo not drawn) + NC1CC1c1ccc(-c2cccc(O)c2)cc1

>  <Data Value>
74.5%

$$$$
>  <Molecule>
CC(C)CC(NC(=O)C(Cc1ccccc1)NC(=O)c1cnccn1)B(O)O (stereo not drawn) + NC1CCC(NC2CC2c2ccccc2)CC1

>  <Data Value>
62.5%

$$$$
>  <Molecule>
CC(C)CC(NC(=O)CNC(=O)c1cc(Cl)ccc1Cl)B1OC(=O)CC(CC(=O)O)(C(=O)O)O1 (stereo not drawn) + NC1CCC(NC2CC2c2ccccc2)CC1

>  <Data Value>
79.3%

$$$$
>  <Molecule>
Cn1ncnc1C1c2n[nH]c(=O)c3cc(F)cc(c23)NC1c1ccc(F)cc1 (stereo not drawn) + NC1CC1c1ccc(-c2cccc(O)c2)cc1

>  <Data Value>
51.5%

$$$$

---

Test system: NCI-H211 complex spheroid viability
Measurement Protocol: Anticancer human tumor NCI-H211 cell line growth inhibition [LSD1];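 note: luminescent viability read after seven days of drug exposure; 100% = DMSO vehicle control viability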
Condition Notes: second compound 0.1 µM; first compound 0.316 µM; stronger effect = lower value

>  <Compound>
O=C(C=Cn1cnc(-c2cc(C(F)(F)F)cc(C(F)(F)F)c2)n1)NNc1cnccn1 + NC1CCC(NC2CC2c2ccccc2)CC1

>  <viability, T/C, %>
2.42

$$$$
>  <Compound>
CC1COCCN1c1cc(C2(S(C)(=N)=O)CC2)nc(-c2ccnc3[nH]ccc23)n1 (centres undefined) + NC1CCC(NC2CC2c2ccccc2)CC1

>  <viability, T/C, %>
51.6

$$$$
>  <Compound>
COc1ccc([C@@H](O)c2cc(-c3ncnc4cc(N5CCOCC5)ccc34)c(F)cc2Cl)nn1 + NC1CCC(NC2CC2c2ccccc2)CC1

>  <viability, T/C, %>
69.5

$$$$
>  <Compound>
CC1COCCN1c1cc(C2(S(C)(=N)=O)CC2)nc(-c2ccnc3[nH]ccc23)n1 (centres undefined) + NC1CC1c1ccc(-c2cccc(O)c2)cc1

>  <viability, T/C, %>
48.5

$$$$

---

Tested on: NCI-H211 complex spheroid viability
Measurement Protocol: Anticancer human tumor NCI-H211 cell line growth inhibition [LSD1];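 note: luminescent viability read after seven days of drug exposure; 100% = DMSO vehicle control viability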
Condition Notes: second compound 3.16 µM; first compound 0.0316 µM; stronger effect = lower value
Binning of viability, T/C into classes: bottom range = under 5%, center range = from 5% up to 20%, top range = 20% and over

>  <Molecule>
Cn1ncnc1C1c2n[nH]c(=O)c3cc(F)cc(c23)NC1c1ccc(F)cc1 (stereo not drawn) + NC1CCC(NC2CC2c2ccccc2)CC1

>  <Group>
bottom range

$$$$
>  <Molecule>
CC1(C)CCC(CN2CCN(c3ccc(C(=O)NS(=O)(=O)c4ccc(NCC5CCOCC5)c([N+](=O)[O-])c4)c(Oc4cnc5[nH]ccc5c4)c3)CC2)=C(c2ccc(Cl)cc2)C1 + NC1CC1c1ccc(-c2cccc(O)c2)cc1

>  <Group>
top range

$$$$
>  <Molecule>
CC1COCCN1c1cc(-c2ccnn2C)c2ccnc(-c3ccn[nH]3)c2n1 (stereo not drawn) + NC1CCC(NC2CC2c2ccccc2)CC1

>  <Group>
bottom range

$$$$
>  <Molecule>
CC1(C)CCC(CN2CCN(c3ccc(C(=O)NS(=O)(=O)c4ccc(NCC5CCOCC5)c([N+](=O)[O-])c4)c(Oc4cnc5[nH]ccc5c4)c3)CC2)=C(c2ccc(Cl)cc2)C1 + NC1CCC(NC2CC2c2ccccc2)CC1

>  <Group>
top range

$$$$
>  <Molecule>
O=C(C=Cn1cnc(-c2cc(C(F)(F)F)cc(C(F)(F)F)c2)n1)NNc1cnccn1 + NC1CC1c1ccc(-c2cccc(O)c2)cc1

>  <Group>
center range

$$$$
>  <Molecule>
O=C(C=Cn1cnc(-c2cc(C(F)(F)F)cc(C(F)(F)F)c2)n1)NNc1cnccn1 + NC1CCC(NC2CC2c2ccccc2)CC1

>  <Group>
center range

$$$$
>  <Molecule>
COc1cc(Nc2ncc3c(n2)-c2ccc(Cl)cc2C(c2c(F)cccc2OC)=NC3)ccc1C(=O)O + NC1CC1c1ccc(-c2cccc(O)c2)cc1

>  <Group>
bottom range

$$$$
>  <Molecule>
COc1ccc([C@@H](O)c2cc(-c3ncnc4cc(N5CCOCC5)ccc34)c(F)cc2Cl)nn1 + NC1CCC(NC2CC2c2ccccc2)CC1

>  <Group>
top range

$$$$
>  <Molecule>
Nc1ncn(C2CC(O)C(CO)O2)c(=O)n1 (stereo not drawn) + NC1CCC(NC2CC2c2ccccc2)CC1

>  <Group>
center range

$$$$
>  <Molecule>
CC(C)CC(NC(=O)C(Cc1ccccc1)NC(=O)c1cnccn1)B(O)O (stereo not drawn) + NC1CCC(NC2CC2c2ccccc2)CC1

>  <Group>
bottom range

$$$$
>  <Molecule>
O=C(c1cc(Cc2n[nH]c(=O)c3ccccc23)ccc1F)N1CCN(C(=O)C2CC2)CC1 + NC1CC1c1ccc(-c2cccc(O)c2)cc1

>  <Group>
top range

$$$$

---

Test system: NCI-H211 complex spheroid viability
Measurement Protocol: Anticancer human tumor NCI-H211 cell line growth inhibition [LSD1];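 note: luminescent viability read after seven days of drug exposure; 100% = DMSO vehicle control viability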
Condition Notes: second compound 0.1 µM; first compound 0.00949 µM; stronger effect = lower value
viability, T/C listing for selected compounds.

>  <Compound>
Nc1ccccc1NC(=O)c1ccc(CNC(=O)OCc2cccnc2)cc1 + NC1CCC(NC2CC2c2ccccc2)CC1

>  <viability, T/C [%]>
54.5

$$$$
>  <Compound>
O=C(C=Cc1cccc(S(=O)(=O)Nc2ccccc2)c1)NO + NC1CCC(NC2CC2c2ccccc2)CC1

>  <viability, T/C [%]>
15.1

$$$$
>  <Compound>
Nc1ccccc1NC(=O)c1ccc(CNC(=O)OCc2cccnc2)cc1 + NC1CC1c1ccc(-c2cccc(O)c2)cc1

>  <viability, T/C [%]>
56.5

$$$$
>  <Compound>
CCN(c1cc(-c2ccc(CN3CCOCC3)cc2)cc(C(=O)NCc2c(C)cc(C)[nH]c2=O)c1C)C1CCOCC1 + NC1CCC(NC2CC2c2ccccc2)CC1

>  <viability, T/C [%]>
76

$$$$
>  <Compound>
NS(=O)(=O)OCC1CC(n2ccc3c(NC4CCc5ccccc54)ncnc32)CC1O (centres undefined) + NC1CC1c1ccc(-c2cccc(O)c2)cc1

>  <viability, T/C [%]>
21.2

$$$$
>  <Compound>
Nc1ccn(C2OC(CO)C(O)C2(F)F)c(=O)n1 (centres undefined) + NC1CC1c1ccc(-c2cccc(O)c2)cc1

>  <viability, T/C [%]>
3.86

$$$$
>  <Compound>
CCc1c2c(nc3ccc(O)cc13)-c1cc3c(c(=O)n1C2)COC(=O)[C@]3(O)CC + NC1CCC(NC2CC2c2ccccc2)CC1

>  <viability, T/C [%]>
0.6

$$$$
>  <Compound>
O=C(C=Cc1cccc(S(=O)(=O)Nc2ccccc2)c1)NO + NC1CC1c1ccc(-c2cccc(O)c2)cc1

>  <viability, T/C [%]>
14.7

$$$$
>  <Compound>
Nc1ncn(C2CC(O)C(CO)S2)c(=O)n1 (centres undefined) + NC1CCC(NC2CC2c2ccccc2)CC1

>  <viability, T/C [%]>
8.74

$$$$

---

Tested on: NCI-H211 complex spheroid viability
Measurement Protocol: Anticancer human tumor NCI-H211 cell line growth inhibition [LSD1]; active = viability on the fitted dose curve at most 10% of control; inactive = the rest;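 note: luminescent viability read after seven days of drug exposure; 100% = DMSO vehicle control viability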
Condition Notes: second compound 10 µM; first compound 3.16 µM
Source text: Multicellular complex tumor spheroid response to LSD1 Inhibitor Iadademstat in combination with a variety of drugs and investigational agents in selected tumor cell lines The current study was undertaken to assess response to LSD1 inhibitors in combination with standard-of-care drugs and investigational agents in solid tumor complex spheroid models as well as in the K-562 leukemia. […] Compounds. […] If the clinical Cmax for an agent had not been determined, the highest concentration tested was 10 microM. […]
Possible outcomes: YES = active, NO = inactive

>  <Molecule>
CC1COCCN1c1cc(C2(S(C)(=N)=O)CC2)nc(-c2ccnc3[nH]ccc23)n1 (stereo unspecified) + NC1CCC(NC2CC2c2ccccc2)CC1

>  <Group>
YES

$$$$
>  <Molecule>
O=C(c1cc(Cc2n[nH]c(=O)c3ccccc23)ccc1F)N1CCN(C(=O)C2CC2)CC1 + NC1CC1c1ccc(-c2cccc(O)c2)cc1

>  <Group>
YES

$$$$
>  <Molecule>
CC(C)c1c(-c2ccccc2)nc2c(C#N)c[nH]n2c1=O + NC1CC1c1ccc(-c2cccc(O)c2)cc1

>  <Group>
NO

$$$$
>  <Molecule>
COc1ccc([C@@H](O)c2cc(-c3ncnc4cc(N5CCOCC5)ccc34)c(F)cc2Cl)nn1 + NC1CC1c1ccc(-c2cccc(O)c2)cc1

>  <Group>
NO

$$$$
>  <Molecule>
CC1(C)CCC(CN2CCN(c3ccc(C(=O)NS(=O)(=O)c4ccc(NCC5CCOCC5)c([N+](=O)[O-])c4)c(Oc4cnc5[nH]ccc5c4)c3)CC2)=C(c2ccc(Cl)cc2)C1 + NC1CCC(NC2CC2c2ccccc2)CC1

>  <Group>
NO

$$$$
>  <Molecule>
CC1COCCN1c1cc(C2(S(C)(=N)=O)CC2)nc(-c2ccnc3[nH]ccc23)n1 (stereo unspecified) + NC1CC1c1ccc(-c2cccc(O)c2)cc1

>  <Group>
YES

$$$$
